FYI, the data here is from ChEMBL document CHEMBL1122358.

molecular target: Dopamine receptor (Bos taurus, UniProt Q95136+P20288); experiment: In vitro binding affinity towards dopamine receptor was determined in bovine anterior pituitary membrane using [3H]dihydroergocriptine as the radioligand; assay type: cell membranes
Measurement Name: IC50 (nM)
Form entry: value (nM) — number only.

Take a look at these entries with their results.
{"columns": ["Mol", "IC50 / nM"],
 "data": [
  ["CN1CCO[C@@H]2c3cccc4[nH]c(Br)c(c34)C[C@H]21", 3000],
  ["CN1CCO[C@@H]2c3cccc4[nH]cc(c34)C[C@H]21", 2500],
  ["CN1CCO[C@@H]2c3cccc4c3c(cn4C)C[C@H]21", 4800],
  ["CCCN1CCO[C@@H]2c3cccc4c3[C@@H](CN4)C[C@H]21", 300],
  ["c1cc2c3c(c[nH]c3c1)C[C@H]1NCCO[C@H]21", 7000]
]}

Recorded IC50 of `CCCN1CCO[C@@H]2c3cccc4[nH]c(Br)c(c34)C[C@H]21` , please.
500

Please report the recorded IC50 for `CCCN1CCO[C@@H]2c3cccc4[nH]cc(c34)C[C@H]21` .
40
